- assay name: Oral bioavailability in patient with malaria
- Format: ADME, organism-based
- measurement parameters: human, in vivo
property measured: bioavailability (%)
Numbers only, in %.

In plain terms, O=CN(O)CCCP(=O)([O-])O.[Na+] [FOSMIDOMYCIN SODIUM] has a documented bioavailability of 30

====

- Tested on: MRC5
- assay name: Cytotoxicity against human MRC5 cells after 24 hrs by resazurin assay
- Format: cell-based
- measurement parameters: MRC5, 24 h
pIC50: −log10 of the molar value.
# binarize pIC50: threshold 5 inclusive, high side T, low side F

CC(=O)Oc1ccc(COP(=O)(CCCC(=O)N(C)O)OCc2ccc(OC(C)=O)cc2)cc1
F
O=CN(O)CCCP(=O)([O-])O.[Na+] [FOSMIDOMYCIN SODIUM]
F
CCCCCCCCCCCCCCCCOCCCOP(=O)(O)CCCC(=O)N(C)O
F
CCCCCCCCCCCCCCCCOCCCOP(=O)(CCCC(=O)N(C)O)OCCCOCCCCCCCCCCCCCCCC
F
CC(C)C(=O)Oc1ccc(COP(=O)(CCCC(=O)N(C)O)OCc2ccc(OC(=O)C(C)C)cc2)cc1
T
CCCCOCCCOP(=O)(O)CCCC(=O)N(C)O
F
CN(O)C(=O)CCCP(=O)(OCc1ccc(OC(=O)c2ccccc2)cc1)OCc1ccc(OC(=O)c2ccccc2)cc1
T
CCCCCCCCOCCCOP(=O)(O)CCCC(=O)N(C)O
F
CC(C)OC(=O)OCOP(=O)(CCCC(=O)N(C)O)OCOC(=O)OC(C)C
F
CN(O)C(=O)CCCP(=O)(OCOC(=O)C(C)(C)C)OCOC(=O)C(C)(C)C
F

hey, is pIC50 for this one >= 5? `CCCCCCCCCCCCOCCCOP(=O)(O)CCCC(=O)N(C)O`
F

Threshold query (pIC50 >= 5) on `CN(O)C(=O)CCCP(=O)(OCc1ccc(OC(=O)C(C)(C)C)cc1)OCc1ccc(OC(=O)C(C)(C)C)cc1`
T

====

- assay name: Selectivity index, ratio of IC50 for human MRC5 cells to IC50 for Mycobacterium tuberculosis H37Ra ATCC 25177
- Format: toxicity
- measurement parameters: read-out: Ratio IC50
property measured: selectivity ratio
Give bare numbers.

Some compounds with known selectivity ratio results, for comparison:
CN(O)C(=O)CCCP(=O)(OCc1ccc(OC(=O)C(C)(C)C)cc1)OCc1ccc(OC(=O)C(C)(C)C)cc1
2.3
CC(C)C(=O)Oc1ccc(COP(=O)(CCCC(=O)N(C)O)OCc2ccc(OC(=O)C(C)C)cc2)cc1
1.6

Hello, I would appreciate it if you could give selectivity ratio for each entry below.
1. CN(O)C(=O)CCCP(=O)(OCc1ccc(OC(=O)c2ccccc2)cc1)OCc1ccc(OC(=O)c2ccccc2)cc1
2. CCCCCCCCC(=O)Oc1ccc(COP(=O)(CCCC(=O)N(C)O)OCc2ccc(OC(=O)CCCCCCCC)cc2)cc1

1: 1.5; 2: 7.6

Documented selectivity ratio of `CC(=O)Oc1ccc(COP(=O)(CCCC(=O)N(C)O)OCc2ccc(OC(C)=O)cc2)cc1` : 0.8

====

- Test system: Plasmodium falciparum
- assay name: Antiplasmodial activity against chloroquine-resistant Plasmodium falciparum K1 infected in human erythrocytes measured after 72 hrs Malstat/NBT reagent based assay
- Type: functional, organism-based
- measurement parameters: K1, 72 h
pIC50: −log10 of the molar value.
Note to self: values exactly at 6 are met. So pIC50 at or above 6 is met, below is not met.

Solved cases (7 shown):
CC(=O)Oc1ccc(COP(=O)(CCCC(=O)N(C)O)OCc2ccc(OC(C)=O)cc2)cc1
met
CC(C)OC(=O)OCOP(=O)(CCCC(=O)N(C)O)OCOC(=O)OC(C)C
met
CN(O)C(=O)CCCP(=O)(OCc1ccc(OC(=O)C(C)(C)C)cc1)OCc1ccc(OC(=O)C(C)(C)C)cc1
met
CCCCCCCCOCCCOP(=O)(O)CCCC(=O)N(C)O
not met
CC(C)C(=O)Oc1ccc(COP(=O)(CCCC(=O)N(C)O)OCc2ccc(OC(=O)C(C)C)cc2)cc1
met
CCCCCCCCC(=O)Oc1ccc(COP(=O)(CCCC(=O)N(C)O)OCc2ccc(OC(=O)CCCCCCCC)cc2)cc1
met
CCCCOCCCOP(=O)(O)CCCC(=O)N(C)O
not met

Moving on to another molecule below.
Please check the record `CCCCCCCCCCCCCCCCOCCCOP(=O)(CCCC(=O)N(C)O)OCCCOCCCCCCCCCCCCCCCC` and state if its pIC50 is at or above 6.
not met
